src = ChEMBL document CHEMBL1201862

target: UniProt:O75030
Sequence (O75030 whole entry): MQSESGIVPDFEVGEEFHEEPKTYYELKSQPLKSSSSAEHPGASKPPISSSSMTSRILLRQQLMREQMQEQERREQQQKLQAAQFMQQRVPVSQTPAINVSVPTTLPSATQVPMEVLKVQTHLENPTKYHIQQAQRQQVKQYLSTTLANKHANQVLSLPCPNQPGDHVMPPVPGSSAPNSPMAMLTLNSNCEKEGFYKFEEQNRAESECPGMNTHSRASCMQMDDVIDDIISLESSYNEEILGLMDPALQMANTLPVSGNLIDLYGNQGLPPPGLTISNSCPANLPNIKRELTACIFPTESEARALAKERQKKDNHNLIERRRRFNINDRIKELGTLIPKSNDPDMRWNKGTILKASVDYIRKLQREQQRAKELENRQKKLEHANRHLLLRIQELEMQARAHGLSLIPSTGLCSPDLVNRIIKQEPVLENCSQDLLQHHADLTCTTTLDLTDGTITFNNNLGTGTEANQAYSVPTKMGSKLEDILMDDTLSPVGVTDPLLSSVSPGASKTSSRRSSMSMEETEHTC
method: TRPM1 promoter luciferase signal decrease, dose response, MITF inhibitor project, cell-based, SK-MEL-5, cherry-picked, set 3 (AID 493073)
Type: functional
Activity calls are given as the source filed them. The rule behind the calls is not given here.
readout kind: AC50

Problem: Find AC50 (UniProt:O75030) for the entry CC(NC(=O)C12CC3CC(CC(C3)C1)C2)C(=O)NN=Cc1ccc([N+](=O)[O-])o1 (stereo not given)
Result: 7.79 µM (active)

Problem: Find AC50 (UniProt:O75030) for the entry "Cc1[nH]c2ccccc2c1C(=O)CCl"
Result: 6.78 µM (active)

Problem: Find AC50 (UniProt:O75030) for the entry "O=[N+]([O-])c1ccc(Sc2cc[n+]([O-])c3ccccc23)c([N+](=O)[O-])c1"
Result: 5.92 µM (active)

Problem: Find AC50 (UniProt:O75030) for the entry "O=C(O)/C=C/C(=O)c1ccc2c(c1)CCc1ccccc1-2"
Result: 15 µM (active)

Problem: Find AC50 (UniProt:O75030) for the entry "CCOc1ccc(-c2cc(C)[n+](CCO)c(-c3ccc(OCC)cc3)c2)cc1.[O-][Cl+3]([O-])([O-])[O-]"
Result: 11.1 µM (active)
